target: antigenic protein: class A β-lactamase fragment of Mycobacterium abscessus (Blamab gene) with C-terminal TEV … (Mycobacterium abscessus); assay: cell-based or functional assay
So I've got a bunch of binders here, and I need their Km (µM), with antibody values.
Just the number plus its unit, please.

// query Which Km (µM), with antibody reading was recorded for the binder β-lactamase inhibitor B6 antibody (VHH, sdAb from a synthetic naive yeast display library; expressed from pET26b in the E. coli periplasm and purified by chromatography; also called sdAb B6) VHH: QVQLQESGGGLVQAGGSLRLSCAASGTISAVSGMGWYRQAPGKEREFVASINRGSTTNYADSVKGRFTISRDNAKNTVYLQMNSLKPEDTAVYYCAALHGTGRVHVYWGQGTQVTVSS ?
// result 53.3 µM

// query May I ask what Km (µM), with antibody has been recorded for β-lactamase inhibitor B5 antibody (VHH, sdAb from a synthetic naive yeast display library; expressed from pET26b in the E. coli periplasm and purified by chromatography; also called sdAb B5) VHH: QVQLQESGGGLVQAGGSLRLSCAASGNISDLGTMGWYRQAPGKEREFVAGIGTGSNTYYADSVKGRFTISRDNAKNTVYLQMNSLKPEDTAVYYCAVIAGRSYWIYFYYWGQGTQVTVSS ?
// result 57.3 µM

// query // lookup Km (µM), with antibody for β-lactamase inhibitor B4 antibody (VHH, sdAb from a synthetic naive yeast display library; expressed from pET26b in the E. coli periplasm and purified by chromatography; also called sdAb B4) VHH: QVQLQESGGGLVQAGGSLRLSCAASGTIFAQDYMGWYRQAPGKEREFVASIAYGTITYYADSVKGRFTISRDNAKNTVYLQMNSLKPEDTAVYYCAVYPTPVTDYIYWGQGTQVTVSS
// result 45.6 µM

// query Entry β-lactamase inhibitor B2 antibody (VHH, sdAb from a synthetic naive yeast display library; expressed from pET26b in the E. coli periplasm and purified by chromatography; also called sdAb B2) VHH: QVQLQESGGGLVQAGGSLRLSCAASGTIFVYPYMGWYRQAPGKEREFVAGIGQGATTYYADSVKGRFTISRDNAKNTVYLQMNSLKPEDTAVYYCAAYRYRDDVRRYGIDRYHTYWGQGTQVTVSS has what Km (µM), with antibody?
// result 64.4 µM

// query Any idea what Km (µM), with antibody was measured for single domain antibody B1 (VHH, sdAb from a synthetic naive yeast display library; expressed from pET26b in the E. coli periplasm and purified by chromatography; also called sdAb B1) VHH: QVQLQESGGGLVQAGGSLRLSCAASGNIFTVSSMGWYRQAPGKEREFVAAISDGATTNYADSVKGRFTISRDNAKNTVYLQMNSLKPEDTAVYYCAAYASRVGLTVYWGQGTQVTVSS ?
// result 42.6 µM

// query Find the recorded Km (µM), with antibody belonging to β-lactamase inhibitor B3 antibody (VHH, sdAb from a synthetic naive yeast display library; expressed from pET26b in the E. coli periplasm and purified by chromatography; also called sdAb B3) VHH: QVQLQESGGGLVQAGGSLRLSCAASGTIFYYPYMGWYRQAPGKEREFVAGIDYGSTTYYADSVKGRFTISRDNAKNTVYLQMNSLKPEDTAVYYCAVVYLVTRKGASQQDEIYSYWGQGTQVTVSS and report it.
// result 51.9 µM
